Target: T1, human C-KIT, full length, on cells (human, UniProt P10721 26-976)
T1 construct: full-length cDNA stably transfected in CHO-K1; also used here for endogenous C-KIT of TF-1 cells; also called human C-KIT+ CHO-K1 cells; C-KIT on TF-1 cells
Assay: flow cytometry, C-KIT-transfected CHO-K1 cells, IgG1 format

[
  {
    "Binder": "TTP2 (antibody, IgG1, V domains shown, IgG1) VH: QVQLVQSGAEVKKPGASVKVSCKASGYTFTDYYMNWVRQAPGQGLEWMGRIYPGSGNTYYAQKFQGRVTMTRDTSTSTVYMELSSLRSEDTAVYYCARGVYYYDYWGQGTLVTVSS VL: DIQMTQSPSSLSASVGDRVTITCRASQGIRTNLAWFQQKPGKAPKSLIYAASSLQSGVPSRFSGSGSGTDFTLTISSLQPEDFATYYCQQYNSYPHTFGGGTKVEIK",
    "binding result": "binds"
  }
]

These measurements were taken from patent US20200283521A1.
